Each recorded value in this set is attributed to patent US4585861A.

- test target: benzodiazepine receptor
- test method notes: In vitro activation of benzodiazepine (BZ) binding (flunirazepam, native membrane protein)
- condition: average of one or more tests, read-out: SC50 BZ (nanomolar concentration producing a 50% increase in binding)
test readout: EC50

*Q* I would be grateful if you could share the reported EC50 for CCc1ccc(-c2nnc(N3CCC(O)CC3)nc2-c2ccc(CC)cc2)cc1 .
*A* 3500 nM

*Q* I would be grateful if you could share the reported EC50 for Cc1ccccc1-c1nnc(N2CCC(O)CC2)nc1-c1ccccc1C .
*A* > 10000 nM

*Q* I would be grateful if you could share the reported EC50 for Cc1ccc(-c2nnc(N3CCC(OS(=O)(=O)c4ccc(C)cc4)CC3)nc2-c2ccc(C)cc2)cc1 .
*A* 1200 nM

*Q* I would be grateful if you could share the reported EC50 for CC(=O)OC1CCN(c2nnc(-c3ccccc3C)c(-c3ccccc3C)n2)CC1 .
*A* 1000 nM

*Q* I would be grateful if you could share the reported EC50 for COC1CCN(c2nnc(-c3ccc(C)cc3)c(-c3ccc(C)cc3)n2)CC1 .
*A* 90 nM

*Q* I would be grateful if you could share the reported EC50 for CCOC1CCN(c2nnc(-c3ccc(C)cc3)c(-c3ccc(C)cc3)n2)CC1 .
*A* 21 nM

*Q* I would be grateful if you could share the reported EC50 for Cc1ccc(-c2nnc(N3CCC(O)CC3)nc2-c2ccc(C)cc2)cc1 .
*A* 700 nM

*Q* I would be grateful if you could share the reported EC50 for CCOC(=O)C1CCN(c2nnc(-c3ccc(C)cc3)c(-c3ccc(C)cc3)n2)CC1 .
*A* 18 nM

*Q* I would be grateful if you could share the reported EC50 for Cc1ccc(-c2nnc(N3CCC(C(N)=O)CC3)nc2-c2ccc(C)cc2)cc1 .
*A* 8500 nM

*Q* I would be grateful if you could share the reported EC50 for CNC(=O)OC1CCN(c2nnc(-c3ccc(C)cc3)c(-c3ccc(C)cc3)n2)CC1 .
*A* 24 nM

*Q* I would be grateful if you could share the reported EC50 for Cc1ccc(-c2nnc(N3CCC4(CC3)OCCO4)nc2-c2ccc(C)cc2)cc1 .
*A* 8000 nM

*Q* I would be grateful if you could share the reported EC50 for Cc1ccc(-c2nnc(N3CCC(OC(=O)C(C)(C)C)CC3)nc2-c2ccc(C)cc2)cc1 .
*A* 14 nM

*Q* I would be grateful if you could share the reported EC50 for Cc1ccc(-c2nnc(N3CCC(=O)CC3)nc2-c2ccc(C)cc2)cc1 .
*A* 430 nM

*Q* I would be grateful if you could share the reported EC50 for CC(=O)OC1CCN(c2cnc(-c3ccc(C)cc3)c(-c3ccc(C)cc3)n2)CC1 .
*A* 10 nM

*Q* I would be grateful if you could share the reported EC50 for Cc1ccc(-c2ncc(N3CCC(O)CC3)nc2-c2ccc(C)cc2)cc1 .
*A* 400 nM

*Q* I would be grateful if you could share the reported EC50 for Cc1ccc(-c2nnc(N3CCCCCC3)nc2-c2ccc(C)cc2)cc1 .
*A* 600 nM

*Q* I would be grateful if you could share the reported EC50 for CC(=O)OC1CCN(c2nnc(-c3ccc(C)cc3)c(-c3ccc(C)cc3)n2)C1 (centres unmarked) .
*A* 60 nM
